# Test system: PC-3 prostate
# procedure_details: NCI-60 one-dose screen, 48 h (100 = growth as untreated, 0 = no growth, -100 = all killed)
# cond: 10 µM unless noted
About 83,000 compounds went through this panel and 20% of them were active in at least one assay; those are over-represented in the sample as a whole.
measurement_type: growth (%)
Give bare numbers, in %.

State the recorded growth for every item in the following list.
1. COC(=O)C1=C(C(=O)ON)C2C=CC1(C(Cc1ccccc1)Nc1ccccc1)O2 (stereo not given)
2. C#CCNC(=O)c1cccc2c1cc(C)n2-c1nc2c(c(NCc3ccccc3)n1)CCCC2
3. N#CC1=C(N)Oc2c(cnn2-c2ccc([N+](=O)[O-])cc2[N+](=O)[O-])C1c1ccccc1 (stereo not given)
4. NC(=O)Nc1ccc(-n2cnc3cc(-c4ccc(O)cc4)ccc32)cc1
5. O=S(=O)(NCCNc1nccc(-c2c(-c3cccc(O)c3)nc3occn23)n1)c1ccc(C(F)(F)F)cc1

-- reply
1. 100
2. -18.2
3. 105
4. 96
5. 99.7

---

Give measured growth for each item. Keep answers brief.
# System: HCT-15 colon
# procedure_details: NCI-60 one-dose screen, 48 h (100 = growth as untreated, 0 = no growth, -100 = all killed)
# cond: 10 µM unless noted
The panel holds about 83,000 compounds, 20% with a hit somewhere; the sample as a whole holds those more often. Calls of active or inactive are those of the source. How the source made its calls: active means growth percent below 10; inactive means the rest.

Fill in growth for each of the 6 compounds listed.
1. COc1cc(-c2csc(NC(=O)c3cc(F)cc(C(F)(F)F)c3)n2)cc(OC)c1OC
2. O=C1c2ccc3c4c(ccc(c24)C(=O)N1CCCNCc1ccccc1Cl)C(=O)N(CCCNCc1ccccc1Cl)C3=O
3. O=C(/C=C(/C=C/c1coc2ccccc12)OB(F)F)/C=C/c1coc2ccccc12
4. O=c1c2c(c(=O)n1O)c1c3ccc[nH]c3nc1c1nc3[nH]cccc3c12
5. CN1CCN(C(=O)[C@]23CCC(C)(C)C[C@H]2C2=CC[C@@H]4[C@@]5(C)C/C(=C/c6ccncc6)C(=O)C(C)(C)[C@@H]5CC[C@@]4(C)[C@]2(C)CC3)CC1
6. Oc1ccc(C(c2ccc(O)cc2)c2ccc(Br)cn2)cc1

-- reply
1: 34.3% (inactive); 2: -46% (active); 3: 95.1% (inactive); 4: 97% (inactive); 5: 36.3% (inactive); 6: 15.6% (inactive)

Your task in this section: give growth for each listed record.
1. Cc1cccc(-c2cn3ccnc3c(-c3ccc4ncn(Cc5ccccc5)c4c3)n2)c1
2. COc1cccc(C(=O)NNc2nc(Cl)nc(N3CCN(C(c4ccccc4)c4ccccc4)CC3)n2)c1
3. COc1ccc(CCn2cncc2-c2c[nH]c3ccccc23)cc1

-- reply
1. 64.8% (inactive)
2. 13.3% (inactive)
3. 93.1% (inactive)

---

# Tested on: SF-295 CNS
# procedure_details: NCI-60 one-dose screen, 48 h (100 = growth as untreated, 0 = no growth, -100 = all killed)
# cond: 10 µM unless noted
The panel holds about 83,000 compounds, 20% with a hit somewhere; the sample as a whole holds those more often.
Would you mind telling me the reported growth of each entry?
Answers are plain numbers, in %.

// known answers, use as guide
compound	growth (%)
COc1cc(/C=C/c2cc(O)c(C(C)=O)c(O)c2)cc2c1O[C@]1(C)CC[C@@H](O)C(C)(C)[C@H]1C2	8.72
COc1ccc(C(C)=O)c(OC)c1	110
CCNc1nc2cc(Nc3ccnc4cc(Cl)ccc34)ccc2o1	55.2
CCN1CCN(CCNc2nccc(-c3c(-c4cccc(OC)c4)nc4occn34)n2)S1(=O)=O	101
CCNC(=O)Oc1ccc(/C(=C(\C)c2ccccc2)c2ccc(OCCN3CCCCC3)cc2)cc1	29.7

For every listed record, write down its growth.
1. CCOC(=O)c1cc(C(=O)c2cc(OC)cc(OC)c2)n2ccc3ccccc3c12
2. CNC(=O)c1cncc(Cn2nc(C)c(NC(=O)c3ccc(COc4ccc(C(F)(F)F)cc4C)cc3)c2C)c1
3. CCCOc1ccc(/C=N/Nc2cc(C)nc3ccc(Br)cc23)cc1
4. O=C1Nc2cc(-c3cccc(O)c3)ccc2/C1=C/c1ccc[nH]1
5. N=C1C(c2nc3ccccc3s2)=C(O)CN1c1cc(Cl)cc(Cl)c1
6. CC(=O)OC[C@]12CC[C@@H](C(=O)CBr)[C@@H]1[C@H]1CC[C@@H]3[C@@]4(C)CC[C@H](OC(C)=O)C(C)(C)[C@@H]4CC[C@@]3(C)[C@]1(C)CC2
7. C=C(C)[C@@H]1CC[C@]2(C(=O)N[C@@H](Cc3ccccc3)C(=O)OC)CC[C@]3(C)[C@H](CC[C@@H]4[C@@]5(C)CCC(=O)C(C)(C)[C@@H]5CC[C@]43C)[C@@H]12
8. CCCNC(=O)Oc1ccc(/C(=C(\C)c2ccccc2)c2ccc(OCCCN(C)C)cc2)cc1

-- reply
[94.9, 40.4, 81, 19.3, 88.2, 106, 78.8, 64]

Look up growth for the entries below, preserving their order.
1. Nc1nc(Nc2ccccc2SSc2ccccc2Nc2nc(N)nc(-c3ccc(C(F)(F)F)cc3)n2)nc(-c2ccc(C(F)(F)F)cc2)n1
2. CCCCCCCCOc1ccc(/C=N/Nc2cc(C)nc3ccc(Br)cc23)cc1

-- reply
1: 65.5; 2: 78.8

Below are some compounds; for each one, tell me its growth.
1. COc1cc(/C=N/NC(=O)c2cnn3c2NC(c2ccccc2)C3)ccc1OCc1ccccc1 (stereo not drawn)
2. COc1cc(/C=C2\COc3ccc(-c4ccccc4)cc3C2=O)cc(OC)c1

-- reply
[-48.3, 68.9]

-- ask Report value: growth, system: SF-295 CNS, compound: COc1ccc(C(=O)c2cc(C)c(OC)c(C)c2)c(OC)c1N(C(=O)CCl)C(=O)CCl
-- reply 5.4

---

Give growth for every item shown.
# System: PC-3 prostate
# procedure_details: NCI-60 one-dose screen, 48 h (100 = growth as untreated, 0 = no growth, -100 = all killed)
# cond: 10 µM unless noted
This is part of a sample that, as a whole, favours compounds with a hit. Of some 83,000 tested, about 20% had one in any assay. The source made the active and inactive calls. How the source made its calls: active means growth percent below 10; inactive means the rest.

compound	assayed_system	growth
NS(=O)(=O)c1ccc(CCN2C(=O)C3C(C2=O)C2(Cl)C(Cl)=C(Cl)C3(Cl)C2(Cl)Cl)cc1 (stereo not drawn)	PC-3 prostate	42.3% (inactive)
N#Cc1c(-c2cccc([N+](=O)[O-])c2)nc(SCC(=O)c2ccc(Cl)cc2)[nH]c1=O	PC-3 prostate	100% (inactive)
CCN(CC)c1ccc(/C=N/NC(=O)CSc2nc3ccccc3c(=O)n2Cc2ccc(S(N)(=O)=O)cc2)c(O)c1	PC-3 prostate	48.8% (inactive)

Hello, I would appreciate it if you could give growth for each entry below.
1. C=C(C)[C@@H]1CC[C@]2(C(=O)N[C@@H](Cc3ccccc3)C(=O)OC)CC[C@]3(C)[C@H](CC[C@@H]4[C@@]5(C)CCC(=O)C(C)(C)[C@@H]5CC[C@]43C)[C@@H]12
2. NCCCCCCNc1cc(-c2cccc(OC(F)(F)F)c2)nc2ccc(N3CCCC3)cc12
3. COc1cc(F)c(/C=C/c2cc(/C=C/c3cc(OC)c(OC)cc3F)on2)cc1OC

-- reply
1: 52.3% (inactive); 2: -5.66% (active); 3: 74% (inactive)

Answer for every listed entry: what is its growth? The entries follow.
1. CCOC(=O)Oc1c(OC)cc(C(=O)c2ccc(OC)c(OC(=O)CCl)c2OC)cc1OC
2. Cc1nc(N)nc(N[C@@H](C)c2nc3cccc(NCc4ccc(C(=O)NO)cc4)c3c(=O)n2-c2ccccc2)n1

-- reply
["23% (inactive)", "88% (inactive)"]

---

# Test system: PC-3 prostate
# procedure_details: NCI-60 one-dose screen, 48 h (100 = growth as untreated, 0 = no growth, -100 = all killed)
# cond: 10 µM unless noted
About 83,000 compounds went through this panel and 20% of them were active in at least one assay; those are over-represented in the sample as a whole.
Would you mind telling me the reported growth of each entry?
Numbers only, in %.

Worked examples, 3 compounds total:
> print(dat)
                                   compound  assayed.system  assay.result
1  Cn1cc(-c2nc(-c3c[nH]c4c(Cl)nccc34)cs2)c2cc(Br)ccc21   PC-3 prostate          81.2
2  O=S(=O)(NCCNc1nccc(-c2c(-c3cccc(O)c3)nc3occn23)n1)c1cccc(F)c1   PC-3 prostate          86.8
3  O=C(/C=C(/C=C/c1csc2ccccc12)OB(F)F)/C=C/c1csc2ccccc12   PC-3 prostate          20.3

Working through the 2 compounds below one at a time, give growth for each.
1. COc1cc(/C=C/c2cc(O)c(C(C)=O)c(O)c2)cc2c1O[C@]1(C)CC[C@@H](O)C(C)(C)[C@H]1C2
2. COc1ccc(/C=C/c2nc(Nc3ccc(Cl)cc3)c3ccccc3n2)cc1

-- reply
1. 45.2
2. 54.5

From: PubChem BioAssay (NCI)
